Let's look at some compounds and their measured pIC50.
assayedSystem: Beta-lactamase (Enterobacter cloacae)
Sequence (P05364 whole entry): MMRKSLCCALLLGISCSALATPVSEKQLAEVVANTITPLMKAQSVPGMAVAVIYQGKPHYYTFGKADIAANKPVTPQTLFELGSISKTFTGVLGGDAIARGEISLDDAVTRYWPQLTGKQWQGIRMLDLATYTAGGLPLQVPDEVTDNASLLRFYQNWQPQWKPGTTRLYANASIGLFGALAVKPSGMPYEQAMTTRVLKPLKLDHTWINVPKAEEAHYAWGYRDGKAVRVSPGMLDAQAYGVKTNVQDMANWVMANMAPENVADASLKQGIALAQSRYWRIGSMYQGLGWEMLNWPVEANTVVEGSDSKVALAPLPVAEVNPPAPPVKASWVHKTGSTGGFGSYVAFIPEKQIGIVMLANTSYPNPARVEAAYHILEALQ
protocolText: Concentration required for its inhibitory activity against Enterobacter cloacae P99 class C beta-lactamase
Bear in mind: pIC50 is minus log10 of a mol/L concentration; give just that figure.

Some solved cases for reference:
1) CCCCCCCCCCCCCCCCCc1cccc(O)c1C(=O)O
5.58
2) CC/C=C\C/C=C\C/C=C\CCCCCCCc1cccc(O)c1C(=O)O
4.34

# input for lookup
Q: Looking for the measured pIC50 of CCCCCCCCCCCCCCCc1cccc(O)c1 , can you help?
Result: 4.63

---

assayedSystem: Beta-lactamase OXA-1 (Escherichia coli)
Sequence (P13661 whole entry): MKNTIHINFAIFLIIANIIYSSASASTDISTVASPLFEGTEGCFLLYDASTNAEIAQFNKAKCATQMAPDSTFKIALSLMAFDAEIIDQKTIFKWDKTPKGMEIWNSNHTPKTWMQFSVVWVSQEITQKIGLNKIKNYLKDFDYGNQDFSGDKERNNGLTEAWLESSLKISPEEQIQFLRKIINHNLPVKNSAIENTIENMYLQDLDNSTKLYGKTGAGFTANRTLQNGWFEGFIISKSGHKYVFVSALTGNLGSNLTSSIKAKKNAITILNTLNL
protocolText: Concentration required for its inhibitory activity against Escherichia coli K12(OXA1) class D beta-lactamase
quantity: pIC50
Notebook: values listed as pIC50 are -log10 of the concentration (mol/L).

Q: Endpoint output: pIC50 of CCCCCCCCCCCCCCCCCc1cccc(O)c1C(=O)O . Value?
Result: 4.11

Q: Next entry: O=C(O)[C@H]1/C(=C/CO)O[C@@H]2CC(=O)N21 [antibiotic MM 14151]
Result: 5.76

Q: # iterate: C=CC/C=C\C/C=C\CCCCCCCc1cccc(O)c1C(=O)O
Result: 4.14
